- assay-target: SRC (Homo sapiens, UniProt P12931)
- Sequence (P12931 whole entry, species assumed): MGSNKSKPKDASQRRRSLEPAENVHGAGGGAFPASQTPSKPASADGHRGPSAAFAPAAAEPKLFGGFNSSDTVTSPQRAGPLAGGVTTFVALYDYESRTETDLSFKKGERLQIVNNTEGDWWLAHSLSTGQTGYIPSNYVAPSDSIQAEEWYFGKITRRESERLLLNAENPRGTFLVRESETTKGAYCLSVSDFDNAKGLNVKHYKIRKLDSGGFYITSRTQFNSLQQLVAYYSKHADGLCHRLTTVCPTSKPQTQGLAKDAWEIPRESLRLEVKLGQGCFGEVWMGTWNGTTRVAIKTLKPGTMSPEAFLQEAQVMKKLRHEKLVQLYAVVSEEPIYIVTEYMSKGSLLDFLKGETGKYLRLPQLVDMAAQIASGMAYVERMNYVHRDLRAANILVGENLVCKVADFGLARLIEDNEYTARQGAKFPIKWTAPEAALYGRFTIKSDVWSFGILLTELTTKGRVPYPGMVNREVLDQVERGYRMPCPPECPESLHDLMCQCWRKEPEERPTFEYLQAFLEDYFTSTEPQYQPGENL
measured-property: IC50
The reply must contain the numeric value and, after it, the unit.

Data point: Cc1ccc(C(=O)Nc2cc(Cl)cc(C(F)(F)F)c2)cc1C#Cc1cnc2ccc(N3CCC(O)CC3)nn12 [XS4-128, reference compound] ; IC50 = 20.3 nM

`Cc1c(C#Cc2cnc3ccc(N4CCC(O)CC4)nn23)cccc1C(=O)Nc1cc(Cl)cc(C(F)(F)F)c1` has a reported IC50 of 526 nM

---

- assay-target: BaF3-ETV6-NTRK3 (Homo sapiens, UniProt Q16288)
- Construct: fused on or other part: P41212 (Transcription factor ETV6)
- Sequence (Q16288 whole entry, the tested form may be a part): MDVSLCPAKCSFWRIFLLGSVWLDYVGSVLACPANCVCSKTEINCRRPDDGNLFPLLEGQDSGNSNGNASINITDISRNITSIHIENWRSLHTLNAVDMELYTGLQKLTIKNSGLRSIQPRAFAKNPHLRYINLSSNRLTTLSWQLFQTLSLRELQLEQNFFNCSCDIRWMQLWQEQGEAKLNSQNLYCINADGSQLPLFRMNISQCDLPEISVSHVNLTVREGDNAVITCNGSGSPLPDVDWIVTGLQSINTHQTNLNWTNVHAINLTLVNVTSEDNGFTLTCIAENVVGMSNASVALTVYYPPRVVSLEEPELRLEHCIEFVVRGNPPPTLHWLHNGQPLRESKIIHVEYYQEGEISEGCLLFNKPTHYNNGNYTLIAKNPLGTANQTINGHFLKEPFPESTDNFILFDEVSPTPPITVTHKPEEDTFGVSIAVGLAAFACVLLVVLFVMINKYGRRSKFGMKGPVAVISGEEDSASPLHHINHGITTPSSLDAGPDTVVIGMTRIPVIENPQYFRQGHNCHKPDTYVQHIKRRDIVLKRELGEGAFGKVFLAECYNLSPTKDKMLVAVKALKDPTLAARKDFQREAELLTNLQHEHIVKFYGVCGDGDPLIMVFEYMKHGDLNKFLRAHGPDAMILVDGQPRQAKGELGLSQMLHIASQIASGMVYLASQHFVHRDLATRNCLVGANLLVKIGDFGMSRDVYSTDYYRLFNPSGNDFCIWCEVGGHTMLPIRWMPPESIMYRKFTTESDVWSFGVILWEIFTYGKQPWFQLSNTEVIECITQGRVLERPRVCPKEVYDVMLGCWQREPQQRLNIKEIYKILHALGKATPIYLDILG
- method-description: Cell proliferation inhibition, Ba/F3-TRKs stable strain (CCK-8)
- condition-context: 72 hours, read-out: cell viability IC50 ETV6-NTRK3
pIC50: −log10 of the molar value.
measured-property: pIC50

Known results for compounds:
Cc1c(C#Cc2cnc3cccnn23)cccc1C(=O)Nc1cc(CN2CCN(C)CC2)cc(C(F)(F)F)c1 = 6.00 to 7.00
Cc1c(C#Cc2cnc3ccc(N4CCOCC4)nn23)cccc1C(=O)Nc1cc(Cl)cc(C(F)(F)F)c1 = 7.00 to 8.00
Cc1c(C#Cc2cnc3ccc(N4CCC(N(C)C)CC4)nn23)cccc1C(=O)Nc1cc(CN2CCN(C)CC2)cc(C(F)(F)F)c1 = 7.00 to 8.00
Cc1c(C#Cc2cnc3ccc(N4CC[C@H](O)C4)nn23)cccc1C(=O)Nc1cccc(C(F)(F)F)c1 = 7.00 to 8.00
Cc1c(C#Cc2cnc3ccc(N4CCN(C)[C@H](C)C4)nn23)cccc1C(=O)Nc1cc(Cl)cc(C(F)(F)F)c1 = 7.00 to 8.00
Cc1c(C#Cc2cnc3ncccn23)cccc1C(=O)Nc1cc(CN2CCN(C)CC2)cc(C(F)(F)F)c1 = < 6.00
Cc1c(C#Cc2cnc3ccc(N4CC[C@H](O)C4)nn23)cccc1C(=O)Nc1cc(Cl)cc(C(F)(F)F)c1 = 7.00 to 8.00
Cc1cn(-c2cc(NC(=O)c3cccc(C#Cc4cnc5ccc(N6CCOCC6)nn45)c3C)cc(C(F)(F)F)c2)cn1 = > 8.00

The reported value for `CC(=O)N1CCN(c2ccc3ncc(C#Cc4cccc(C(=O)Nc5cc(Cl)cc(C(F)(F)F)c5)c4C)n3n2)CC1` in terms of pIC50 is 7.00 to 8.00

Item: `Cc1c(C#Cc2cnc3ccc(N4CCC(C)(O)CC4)nn23)cccc1C(=O)Nc1cc(Cl)cc(C(F)(F)F)c1` | pIC50: 7.00 to 8.00
